Listed next: entries and their corresponding pIC50.
- System tested: hKv1.5 (Homo sapiens, UniProt P22460)
- Sequence (P22460 whole entry): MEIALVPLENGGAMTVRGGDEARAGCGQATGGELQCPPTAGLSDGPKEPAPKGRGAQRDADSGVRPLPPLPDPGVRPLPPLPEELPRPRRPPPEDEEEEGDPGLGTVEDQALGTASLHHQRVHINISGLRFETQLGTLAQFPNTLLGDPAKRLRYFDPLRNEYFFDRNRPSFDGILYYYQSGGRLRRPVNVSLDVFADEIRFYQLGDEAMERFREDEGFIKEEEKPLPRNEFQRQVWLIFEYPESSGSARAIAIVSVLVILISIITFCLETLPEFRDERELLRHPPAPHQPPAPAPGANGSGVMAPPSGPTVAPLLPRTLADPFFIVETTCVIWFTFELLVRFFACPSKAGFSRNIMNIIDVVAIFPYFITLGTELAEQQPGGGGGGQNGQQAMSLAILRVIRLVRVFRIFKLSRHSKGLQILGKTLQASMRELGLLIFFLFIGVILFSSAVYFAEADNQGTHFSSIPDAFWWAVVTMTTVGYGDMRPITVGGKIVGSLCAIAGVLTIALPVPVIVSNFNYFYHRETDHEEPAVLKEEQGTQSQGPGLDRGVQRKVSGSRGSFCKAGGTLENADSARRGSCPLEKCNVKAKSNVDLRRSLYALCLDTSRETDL
- Experiment summary: Kv1.5 electrophysiology, whole cell patch clamp
- Condition parameters: CHO stably transfected with hKv1.5, whole cell patch clamp, room temperature
As a rule, pIC50 stands for the negative log10 of the concentration, concentration in M.

Completed entries (count: 2):
Give the measured pIC50 of O=C(NCCO)[C@H]1CCCN(c2nc(NCc3ccccn3)c3c(-c4ccccc4)csc3n2)C1 [(S) enantiomer (Ib)] .
7.57

Which pIC50 value is on record for O=C(NCCO)C1CCCN(c2nc(NCc3ccccn3)c3c(-c4ccccc4)csc3n2)C1 (racemic) [Racemate] ?
8.05

# next compound below
// lookup pIC50 for O=C(NCCO)[C@@H]1CCCN(c2nc(NCc3ccccn3)c3c(-c4ccccc4)csc3n2)C1 [(R) enantiomer (Ic)]
8.30

Data origin, for the record: patent US9249155B2
